Data provenance is ChEMBL document CHEMBL1909046.

Assay: DRUGMATRIX: Glutamate, NMDA, Agonism radioligand binding (ligand: [3H] CGP-39653)
Assay type: cell membranes, Rattus norvegicus, Wistar, Cerebral cortex, Membrane
Settings: Not Active = under 50% inhibition at 10 µM
readoutType: IC50

Observe how each entry below is paired with its result.
compound	readoutType	obsValue
COCCc1ccc(OCC(O)CNC(C)C)cc1 (stereo not drawn)	IC50	Not Active
OCCN(CCO)c1nc(N2CCCCC2)c2nc(N(CCO)CCO)nc(N3CCCCC3)c2n1	IC50	Not Active
N[C@@H](Cc1ccc(N(CCCl)CCCl)cc1)C(=O)O	IC50	Not Active
Cn1ccnc1S	IC50	Not Active
CCn1cc(C(=O)O)c(=O)c2cc(F)c(N3CCNCC3)cc21	IC50	Not Active

Exam item: I am curious: what IC50 value has been reported for C[C@H]1O[C@@H](O[C@H]2[C@@H](O)C[C@H](O[C@H]3[C@@H](O)C[C@H](O[C@H]4CC[C@@]5(C)[C@H](CC[C@@H]6[C@@H]5C[C@@H](O)[C@]5(C)[C@@H](C7=CC(=O)OC7)CC[C@]65O)C4)O[C@@H]3C)O[C@@H]2C)C[C@H](O)[C@@H]1O ?
Marked response: Not Active

Exam item: So what does the record say about IC50 for CNNCc1ccc(C(=O)NC(C)C)cc1 ?
Marked response: Not Active

Exam item: Looking for the measured IC50 of CN(C)CCCN1c2ccccc2Sc2ccccc21 , can you help?
Marked response: Not Active

Exam item: IC50 for CO[C@H]1/C=C/O[C@@]2(C)Oc3c(C)c(O)c4c(O)c(c(/C=N/N5CCN(C)CC5)c(O)c4c3C2=O)NC(=O)/C(C)=C\C=C\[C@H](C)[C@H](O)[C@@H](C)[C@@H](O)[C@@H](C)[C@H](OC(C)=O)[C@@H]1C ?
Marked response: Not Active

====

Target: Kappa-type opioid receptor (Homo sapiens, UniProt P41145)
Sequence (P41145 whole entry): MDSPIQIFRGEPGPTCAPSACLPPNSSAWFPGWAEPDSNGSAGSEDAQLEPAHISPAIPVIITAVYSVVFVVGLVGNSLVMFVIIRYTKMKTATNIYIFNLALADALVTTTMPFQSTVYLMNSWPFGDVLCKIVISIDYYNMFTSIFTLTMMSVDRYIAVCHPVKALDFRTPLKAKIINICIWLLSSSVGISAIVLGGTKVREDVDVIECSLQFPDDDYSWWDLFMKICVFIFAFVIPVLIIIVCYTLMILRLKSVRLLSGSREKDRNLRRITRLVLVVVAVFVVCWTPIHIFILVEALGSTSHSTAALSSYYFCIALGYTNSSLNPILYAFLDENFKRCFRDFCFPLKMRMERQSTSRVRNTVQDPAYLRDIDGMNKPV
Assay: DRUGMATRIX: Opiate kappa (OP2, KOP) radioligand binding (ligand: [3H] Diprenorphine)
Assay type: cell membranes, HEK293, Membrane
Settings: hek293; Not Active = under 50% inhibition at 10 µM
readoutType: IC50

compound	IC50
CC(=O)[C@@]1(O)CC[C@H]2[C@@H]3C[C@H](C)C4=CC(=O)CC[C@]4(C)[C@H]3CC[C@@]21C	Not Active
Cc1ccccc1N1C(=O)c2cc(S(N)(=O)=O)c(Cl)cc2NC1C (centres undefined) [METOLAZONE]	Not Active
CNNCc1ccc(C(=O)NC(C)C)cc1 [PROCARBAZINE]	Not Active
NC(=O)N1c2ccccc2CCc2ccccc21	Not Active
CC1Cc2ccccc2N1NC(=O)c1ccc(Cl)c(S(N)(=O)=O)c1 (centres undefined) [INDAPAMIDE]	Not Active
OC(Cn1cncn1)(Cn1cncn1)c1ccc(F)cc1F [FLUCONAZOLE]	Not Active
Cc1c(C)c2c(c(C)c1O)CCC(C)(COc1ccc(CC3SC(=O)NC3=O)cc1)O2 (centres undefined) [TROGLITAZONE]	Not Active
Cc1onc(O)c1CC(N)C(=O)O (racemic) [(R,S)-AMPA]	Not Active
CC[C@@]1(O)C[C@H](O[C@H]2C[C@H](N(C)C)[C@H](O[C@H]3C[C@H](O)[C@H](O[C@H]4CCC(=O)[C@H](C)O4)[C@H](C)O3)[C@H](C)O2)c2c(cc3c(c2O)C(=O)c2c(O)cccc2C3=O)[C@H]1C(=O)OC [ACLARUBICIN]	Not Active
Cc1c(C)c2c(c(C)c1O)CC[C@@](C)(CCC[C@H](C)CCC[C@H](C)CCCC(C)C)O2 [ALPHA-TOCOPHEROL]	Not Active

Exam item: # input compound: COCCc1ccc(OCC(O)CNC(C)C)cc1 (centres undefined) [METOPROLOL] ; wanted: its IC50
Marked response: Not Active

Exam item: # IC50 lookup, item COc1c(C)c2c(c(O)c1C/C=C(\C)CCC(=O)O)C(=O)OC2 [MYCOPHENOLIC ACID]
Marked response: Not Active

Exam item: Given the compound Cc1oncc1C(=O)Nc1ccc(C(F)(F)F)cc1 [LEFLUNOMIDE] , what is its reported IC50?
Marked response: Not Active

Exam item: Any idea what IC50 was measured for N[C@@H](Cc1cc(I)c(Oc2ccc(O)c(I)c2)c(I)c1)C(=O)O [LIOTHYRONINE] ?
Marked response: Not Active

Exam item: Quick check: IC50 of O=C(CCCN1CC=C(n2c(=O)[nH]c3ccccc32)CC1)c1ccc(F)cc1 [DROPERIDOL] ?
Marked response: Not Active

Exam item: Which value of IC50 has been reported for CC(C)C(=O)Nc1ccc([N+](=O)[O-])c(C(F)(F)F)c1 [FLUTAMIDE] in the records?
Marked response: Not Active

Exam item: IC50 lookup needed for Cc1cc(C2CCCCC2)n(O)c(=O)c1 [CICLOPIROX] , thanks.
Marked response: Not Active

Exam item: For NC[C@H]1CC[C@H](C(=O)O)CC1 [TRANEXAMIC ACID] , what is its reported IC50?
Marked response: Not Active

Exam item: Fill blank: measured IC50 of the compound N#CC(C#N)=Cc1ccc(O)c(O)c1 [TYRPHOSTIN 23] is ____.
Marked response: Not Active

====

Assay: DRUGMATRIX: beta-Lactamase enzyme inhibition (substrate: Nitrocefin)
Set-up: species or system Bacillus cereus
Details: Not Active = under 50% inhibition at 10 µM
readoutType: Ki

molecule	Ki
C[C@H](CCC(=O)O)[C@H]1CC[C@H]2[C@@H]3[C@H](O)C[C@@H]4C[C@H](O)CC[C@]4(C)[C@H]3C[C@H](O)[C@]12C	Not Active
Cc1cccc(N(C)C(=S)Oc2ccc3ccccc3c2)c1 [TOLNAFTATE]	Not Active
c1ccc2c(c1)c1cccc3ccc4cccc2c4c31 [BENZO[E]PYRENE]	Not Active
CC1(C)O[C@@H]2C[C@H]3[C@@H]4CCC5=CC(=O)CC[C@]5(C)[C@@]4(F)[C@@H](O)C[C@]3(C)[C@]2(C(=O)CCl)O1 [HALCINONIDE]	Not Active
Sc1ncnc2nc[nH]c12 [MERCAPTOPURINE ANHYDROUS]	Not Active
CC(C)CN(C[C@@H](O)[C@H](Cc1ccccc1)NC(=O)O[C@H]1CCOC1)S(=O)(=O)c1ccc(N)cc1	Not Active
C[C@H](CS)C(=O)N1CCC[C@H]1C(=O)O	Not Active
C=C(C)C1(O)OC(=O)C=C1OC (stereo unspecified)	Not Active

Exam item: # get_value(readout='Ki', item= CC[C@]1(O)C[C@H]2CN(CCc3c([nH]c4ccccc34)[C@@](C(=O)OC)(c3cc4c(cc3OC)N(C=O)[C@H]3[C@@](O)(C(=O)OC)[C@H](OC(C)=O)[C@]5(CC)C=CCN6CC[C@]43[C@@H]65)C2)C1 )
Marked response: Not Active

Exam item: Reported Ki for Cc1ccc2cc3c(ccc4ccccc43)c3c2c1CC3 : what is it?
Marked response: Not Active

Exam item: # get_value(readout='Ki', item= OCCN(CCO)c1nc(N2CCCCC2)c2nc(N(CCO)CCO)nc(N3CCCCC3)c2n1 )
Marked response: Not Active

Exam item: Fill in the blank: the reported Ki of CC[C@@]1(O)C[C@H](O[C@H]2C[C@H](N(C)C)[C@H](O[C@H]3C[C@H](O)[C@H](O[C@H]4CCC(=O)[C@H](C)O4)[C@H](C)O3)[C@H](C)O2)c2c(cc3c(c2O)C(=O)c2c(O)cccc2C3=O)[C@H]1C(=O)OC is ____.
Marked response: Not Active

Exam item: Dear colleague, I am looking for the recorded Ki of the following molecule: CC(=O)[C@@]1(O)CC[C@H]2[C@@H]3C[C@H](C)C4=CC(=O)CC[C@]4(C)[C@H]3CC[C@@]21C
Marked response: Not Active

Exam item: Fill blank: measured Ki of the molecule C1CCC(C(CC2CCCCN2)C2CCCCC2)CC1 (stereo unspecified) is ____.
Marked response: Not Active

Exam item: // returns reported Ki for input Nc1ncn([C@@H]2O[C@H](CO)[C@@H](O)[C@H]2O)c(=O)n1
Marked response: Not Active

Exam item: What measured Ki goes with CC1CC(OC(=O)C(O)c2ccccc2)CC(C)(C)C1 (stereo unspecified) [CYCLANDELATE] ?
Marked response: Not Active

Exam item: Tell me the measured Ki of COCCc1ccc(OCC(O)CNC(C)C)cc1 (stereo unspecified) , please.
Marked response: Not Active

====

Experiment: DRUGMATRIX: Serotonin (5-Hydroxytryptamine) 5-HT3 radioligand binding (ligand: [3H] GR-65630)
Format: cell membranes, Membrane
Conditions: hek293; Not Active = under 50% inhibition at 10 µM; read-out: Ki
readoutType: pKi
The meaning of pKi here: minus log10 of the concentration in molar units.

Exam item: Requested field: pKi. Item: CN(C)CCCN1c2ccccc2Sc2ccc(Cl)cc21
Marked response: 5.78
